assay.system: Coagulation factor XII (Homo sapiens);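 also: activated factor XIIa alpha cleaving a fluorogenic AMC peptide substrate; inhibitor potency from loss of enzyme activity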
Sequence (P00748 whole entry): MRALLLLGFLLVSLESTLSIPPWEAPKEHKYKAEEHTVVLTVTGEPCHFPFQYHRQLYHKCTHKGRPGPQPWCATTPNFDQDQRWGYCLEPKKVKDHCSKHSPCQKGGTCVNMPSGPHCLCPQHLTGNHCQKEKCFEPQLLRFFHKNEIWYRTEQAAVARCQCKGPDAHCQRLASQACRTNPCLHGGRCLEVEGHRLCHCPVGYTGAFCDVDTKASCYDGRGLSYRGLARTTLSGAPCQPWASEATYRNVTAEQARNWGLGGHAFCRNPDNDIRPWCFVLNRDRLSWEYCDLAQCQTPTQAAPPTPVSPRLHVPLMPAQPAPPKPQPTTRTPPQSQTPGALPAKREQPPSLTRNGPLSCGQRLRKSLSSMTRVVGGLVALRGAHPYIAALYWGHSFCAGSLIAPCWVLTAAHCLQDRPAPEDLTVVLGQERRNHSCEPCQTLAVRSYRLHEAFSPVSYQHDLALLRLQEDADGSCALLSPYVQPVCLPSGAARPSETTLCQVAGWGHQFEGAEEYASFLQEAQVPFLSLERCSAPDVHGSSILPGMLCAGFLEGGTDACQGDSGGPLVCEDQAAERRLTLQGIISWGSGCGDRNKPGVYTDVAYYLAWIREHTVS
Type: functional
Activity calls are given as the source filed them.
Permitted responses: TRUE for active, FALSE for inactive

Query: Would you mind telling me which call this test gave COC(=O)c1c(NC(=O)c2c(-c3ccccc3Cl)noc2C)sc2c1CCC2 ?
Result: TRUE

Query: Would you mind telling me which call this test gave CSC1=NSC2=NC(=O)/C(=C\c3c(C)[nH]c4ccc(C)cc34)C(=N)N12 ?
Result: FALSE

Query: Would you mind telling me which call this test gave COc1cc(/C=N/n2cnnc2)ccc1OC(=O)c1cccnc1 ?
Result: FALSE

Query: Would you mind telling me which call this test gave FC(F)C(F)(F)C(F)(F)C(F)(F)c1cc(-c2ccccc2)n[nH]1 ?
Result: FALSE

Query: Would you mind telling me which call this test gave CCOc1ccc2nc(O)c(C(c3nnnn3C3CCCCC3)N3CCN(C)CC3)cc2c1 (stereo not drawn) ?
Result: FALSE

Query: Would you mind telling me which call this test gave O=C(NCCc1ccccc1)c1cc(=O)c2ccccc2o1 ?
Result: FALSE

Query: Would you mind telling me which call this test gave O=C(N/N=C/c1ccc(OCc2cnc(Cl)s2)cc1)c1ccncc1 ?
Result: FALSE

Query: Would you mind telling me which call this test gave CCOC(=O)c1c(NC(=O)c2ccc(Br)o2)sc2c1CCCC2 ?
Result: FALSE
